Cited source: patent US8173841B2

Compound: O=C(NCc1ccc(-c2cccc([N+](=O)[O-])c2)cc1)Nc1cccc2c1CC(O)CC2 (stereo not shown)
melting point: 206 to 207 °C
--
Compound: O=C(NCc1ccc(-c2ccc(F)cc2F)cc1)Nc1cccc2c1CC(O)CC2 (stereo not shown)
melting point: 191 to 192 °C
--
Compound: CC(C)c1ccc(-c2cccc(CNC(=O)Nc3cccc4c3CC(O)CC4)c2)cc1 (stereo not shown)
melting point: 202 to 203 °C
--
Compound: O=C(Nc1cccc(-c2cc(Cl)ccc2Cl)c1)Nc1cccc2c1CC(O)CC2 (stereo not shown)
melting point: 209 °C

###

Result Type: melting point (°C)

Compound: O=C(Nc1cccc(-c2cccc(C(F)(F)F)c2)c1)Nc1cccc2c1CC(O)CC2 (stereo not shown) [Example 1-23]
Result Type: melting point
Recorded Result: 210
--
Compound: O=C(Nc1cccc(-c2ccc(F)c(F)c2)c1)Nc1cccc2c1CC(O)CC2 (stereo not shown) [Example 1-17]
Result Type: melting point
Recorded Result: 216
--
Compound: O=C(Nc1cccc(-c2cc(Cl)cc(Cl)c2)c1)Nc1cccc2c1CC(O)CC2 (stereo not shown) [Example 1-19]
Result Type: melting point
Recorded Result: 221
--
Compound: CN(C)c1ccc(-c2cccc(NC(=O)Nc3cccc4c3CC(O)CC4)c2)cc1 (stereo not shown) [Example 1-26]
Result Type: melting point
Recorded Result: 215
